Target: Human ASBT (Homo sapiens, UniProt Q12908)
Construct: kept under Puromycin selection
Sequence (Q12908 1-348): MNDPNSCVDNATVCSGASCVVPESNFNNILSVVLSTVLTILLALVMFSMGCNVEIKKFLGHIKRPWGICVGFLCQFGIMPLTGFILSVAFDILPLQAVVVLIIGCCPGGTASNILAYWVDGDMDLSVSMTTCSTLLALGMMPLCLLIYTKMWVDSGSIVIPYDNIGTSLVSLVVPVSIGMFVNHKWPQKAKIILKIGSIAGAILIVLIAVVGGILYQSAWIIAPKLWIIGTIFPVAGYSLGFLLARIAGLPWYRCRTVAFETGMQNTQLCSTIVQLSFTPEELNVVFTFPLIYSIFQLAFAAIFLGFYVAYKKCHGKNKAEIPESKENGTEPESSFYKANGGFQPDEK
Test: ASBT (h/m) assay: 3H-taurocholic acid uptake in human ASBT-overexpressing cells
Settings: 0.25 μM 3H-taurocholic acid and 5 μM cold taurocholic acid, 20 minutes, read-out: hASBT IC50
IC50 strictly under 500 nM means 1 (yes); at 500 nM or over means 0 (no).

{"columns": ["compound", "discrete-label"],
 "data": [
  ["CCCCC1(CC)CN(c2ccccc2)c2cc(Br)c(O/C=C/C(=O)O)cc2S(=O)(=O)C1 (single isomer, unassigned) [Example 6]", "1 (yes)"],
  ["CCCCC1(CCCC)CN(c2ccc(C(=O)NC(C)(C)C)cc2)c2cc(SC)c(O/C=C/C(=O)O)cc2S(=O)(=O)C1", "0 (no)"],
  ["CCCCC1(CCCC)CN(c2ccc(NC(=O)OC(C)(C)C)cc2)c2cc(SC)c(O/C=C/C(=O)O)cc2S(=O)(=O)C1", "0 (no)"],
  ["CCCCC1(CCCC)CN(c2ccc(NC(=O)CC)cc2)c2cc(SC)c(O/C=C(\\F)C(=O)O)cc2S(=O)(=O)C1", "0 (no)"],
  ["CCCCC1(CCCC)CN(c2ccccc2)c2cc(F)c(O/C=C/C(=O)O)cc2S(=O)(=O)C1", "0 (no)"],
  ["CCCCC1(CC)CN(c2ccccc2)c2cc(SC)c(O/C=C\\C(=O)O)cc2S(=O)(=O)C1 (racemic)", "1 (yes)"]
]}

Is IC50 of CCCCC1(CCCC)CN(c2ccccc2)c2cc(N(C)C)c(O/C=C/C(=O)O)cc2S(=O)(=O)C1 strictly below 500 nM?
1 (yes)

Is IC50 of CCCCC1(CCCC)CN(c2ccccc2)c2cc(OC)c(O/C=C/C(=O)O)cc2S(=O)(=O)C1 strictly below 500 nM?
1 (yes)

Is IC50 of CCCCC1(CCCC)CN(c2ccc(N)cc2)c2cc(SC)c(O/C=C/C(=O)O)cc2S(=O)(=O)C1 strictly below 500 nM?
1 (yes)

* * *

target: Human ASBT (Homo sapiens); construct: kept under Puromycin selection; experiment: ASBT (h/m) assay: 3H-taurocholic acid uptake in human ASBT-overexpressing cells; conditions: 0.25 μM 3H-taurocholic acid and 5 μM cold taurocholic acid, 20 minutes, read-out: hASBT IC50
recorded-endpoint: pIC50
FYI, pIC50 means -log10 of a concentration in mol per litre.

These solved cases illustrate the format of a correct answer.
{"columns": ["compound", "pIC50"],
 "data": [
  ["CCCCC1(CCCC)CN(c2ccc(NC(=O)C(C)(C)C)cc2)c2cc(SC)c(O/C=C(\\F)C(=O)O)cc2S(=O)(=O)C1 [Example 28]", 5.35],
  ["CCCCC1(CCCC)CN(c2ccc(NC(=O)CCC)cc2)c2cc(SC)c(O/C=C/C(=O)O)cc2S(=O)(=O)C1 [Example 40]", 5.34],
  ["CCCCC1(CCCC)CN(c2ccc(Br)cc2)c2cc(SC)c(O/C=C(\\F)C(=O)O)cc2S(=O)(=O)C1 [Example 94]", 7.38]
]}

The reported value for CCCC[C@]1(CC)CN(c2ccccc2)c2cc(SC)c(O/C=C\C(=O)O)cc2S(=O)(=O)C1 (single isomer, unassigned) [Example 61] in terms of pIC50 is 5.79

* * *

Let's look at some compounds and their measured IC50.
system: HepaRG cells; assay: HepaRG-based assay: 3H-taurocholic acid uptake in differentiated HepaRG cells; assay type: cell-based; conditions: Homo sapiens, HepaRG, 0.3 μM 3H-taurocholic acid and 7.5 μM cold taurocholic acid, 30 minutes
Write down the numeric answer in nM and omit the unit.

These solved cases illustrate the format of a correct answer.
{"columns": ["compound", "endpoint-result"],
 "data": [
  ["CCCCC1(CCCC)CN(c2ccc(NCc3ccccc3)cc2)c2cc(SC)c(O/C=C/C(=O)O)cc2S(=O)(=O)C1 [Example 22]", 2140],
  ["CCCCC1(CC)CN(c2ccccc2)c2cc(SCC)c(O/C=C(\\F)C(=O)O)cc2S(=O)(=O)C1 (stereo not drawn) [Example 72]", 319],
  ["CCCCC1(CCCC)CN(c2ccc(NC(=O)CC(C)(C)C)cc2)c2cc(SC)c(O/C=C/C(=O)O)cc2S(=O)(=O)C1 [Example 30]", 336],
  ["CCCCC1(CCCC)CN(c2ccc(NC(=O)OC(C)(C)C)cc2)c2cc(SC)c(O/C=C(\\F)C(=O)O)cc2S(=O)(=O)C1 [Example 26]", 477],
  ["CCCCC1(CC)CN(c2ccccc2)c2cc(I)c(O/C=C/C(=O)O)cc2S(=O)(=O)C1 (single isomer, unassigned) [Example 57]", 1160],
  ["CCCCC1(CCCC)CN(c2ccc(NC(=O)C3CC3)cc2)c2cc(SC)c(O/C=C(\\F)C(=O)O)cc2S(=O)(=O)C1 [Example 36]", 877],
  ["CCCC[C@]1(CC)CN(c2ccccc2)c2cc(Br)c(O/C=C(\\F)C(=O)O)cc2S(=O)(=O)C1 (single isomer, unassigned) [Example 64]", 455],
  ["CCC1(CC)CN(c2ccccc2)c2cc(Br)c(O/C=C/C(=O)O)cc2S(=O)(=O)C1 [Example 55]", 328]
]}

The reported value for CCCCC1(CCCC)CN(c2ccc(C(F)(F)F)cc2)c2cc(SC)c(O/C=C/C(=O)O)cc2S(=O)(=O)C1 [Example 32] in terms of IC50 is 672

* * *

biological target: Human LBAT (Homo sapiens, UniProt Q14973); construct: kept under Geneticin selection; assay: LBAT (h/m) assay: 3H-taurocholic acid uptake in human LBAT-overexpressing cells; conditions: 0.3 μM 3H-taurocholic acid and 7.5 μM cold taurocholic acid, 20 minutes, read-out: hLBAT IC50
recorded-endpoint: pIC50
FYI, pIC50 means -log10 of a concentration in mol per litre.

These solved cases illustrate the format of a correct answer.
{"columns": ["molecule", "endpoint-result"],
 "data": [
  ["CCCCC1(CCCC)CN(c2ccccc2)c2cc(OC)c(O/C=C/C(=O)O)cc2S(=O)(=O)C1 [Example 14]", 5.85],
  ["CCCCC1(CC)CN(c2ccccc2)c2cc(SC)c(O/C=C/C(=O)O)cc2S(=O)(=O)N1 (racemic) [Example 76]", 6.66],
  ["CCCCC1(CC)CN(c2ccccc2)c2cc(Cl)c(O/C=C(\\F)C(=O)O)cc2S(=O)(=O)C1 (single isomer, unassigned) [Example 47]", 7.60]
]}

Let us move to another entry and its pIC50.
The reported value for CCCCC1(CC)CN(c2ccccc2)c2cc(SC)c(O/C=C(\F)C(=O)O)cc2S(=O)(=O)C1 (single isomer, unassigned) [Example 43] in terms of pIC50 is 8.10

* * *

Target: Human LBAT (Homo sapiens)
Construct: kept under Geneticin selection
Sequence (Q14973 1-349): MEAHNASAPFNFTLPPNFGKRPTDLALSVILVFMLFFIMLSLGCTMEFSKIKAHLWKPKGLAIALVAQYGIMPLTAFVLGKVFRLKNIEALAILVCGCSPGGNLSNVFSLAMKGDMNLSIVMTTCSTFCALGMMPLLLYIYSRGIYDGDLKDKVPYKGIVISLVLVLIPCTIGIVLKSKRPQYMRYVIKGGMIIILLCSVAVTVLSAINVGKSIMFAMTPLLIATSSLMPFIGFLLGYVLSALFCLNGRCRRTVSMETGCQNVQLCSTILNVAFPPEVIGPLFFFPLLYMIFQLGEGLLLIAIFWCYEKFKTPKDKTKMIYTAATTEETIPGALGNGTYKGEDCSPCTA
Experiment: LBAT (h/m) assay: 3H-taurocholic acid uptake in human LBAT-overexpressing cells
Settings: 0.3 μM 3H-taurocholic acid and 7.5 μM cold taurocholic acid, 20 minutes, read-out: hLBAT IC50
Category key, based on recorded IC50: low bracket: < 0.05 µM; middle bracket: ≥ 0.05 µM and < 0.3 µM; high bracket: ≥ 0.3 µM

Reference set, count: 8
{"columns": ["compound", "discrete-label"],
 "data": [
  ["CCCCC1(CCCC)CN(c2ccccc2)c2cc(N(C)C)c(O/C=C(\\F)C(=O)O)cc2S(=O)(=O)N1 [Example 97]", "high bracket"],
  ["CCCCC1(CC)CN(c2ccccc2)c2cc(Br)c(O/C=C/C(=O)O)cc2S(=O)(=O)C1 (racemic) [Example 4]", "middle bracket"],
  ["CCCC[C@@]1(CC)CN(c2ccccc2)c2cc(Br)c(O/C=C(\\F)C(=O)O)cc2S(=O)(=O)C1 (single isomer, unassigned) [Example 65]", "low bracket"],
  ["CCCC[C@@]1(CC)CN(c2ccccc2)c2cc(SC)c(O/C=C(\\F)C(=O)O)cc2S(=O)(=O)N1 (single isomer, unassigned) [Example 85]", "middle bracket"],
  ["CCCCC1(CCCC)CN(c2ccc(NC(=O)C(C)(C)C)cc2)c2cc(SC)c(O/C=C(\\F)C(=O)O)cc2S(=O)(=O)C1 [Example 28]", "low bracket"],
  ["CCCCC1(CCCC)CN(c2ccc(NC(=O)OC)cc2)c2cc(SC)c(O/C=C/C(=O)O)cc2S(=O)(=O)C1 [Example 24]", "middle bracket"],
  ["CCCCC1(CCCC)CN(c2ccc(C(=O)NC(C)(C)C)cc2)c2cc(SC)c(O/C=C(\\F)C(=O)O)cc2S(=O)(=O)C1 [Example 79]", "low bracket"],
  ["CCCCC1(CC)CN(c2ccccc2)c2cc(Br)c(O/C=C(\\F)C(=O)O)cc2S(=O)(=O)C1 (racemic) [Example 63]", "low bracket"]
]}

Assign a bin to CCCCC1(CCCC)CN(c2ccc(N)cc2)c2cc(SC)c(O/C=C/C(=O)O)cc2S(=O)(=O)C1 [Example 2]
high bracket

Assign a bin to CCCCC1(CCCC)CN(c2ccccc2)c2cc(CC)c(O/C=C/C(=O)O)cc2S(=O)(=O)C1 [Example 12]
high bracket

Assign a bin to CCCCC1(CCCC)CN(c2ccc(C(=O)N(C)C)cc2)c2cc(SC)c(O/C=C(\F)C(=O)O)cc2S(=O)(=O)C1 [Example 104]
middle bracket

Assign a bin to CCCCC1(CCCC)CN(c2ccc(NC(=O)CC)cc2)c2cc(SC)c(O/C=C(\F)C(=O)O)cc2S(=O)(=O)C1 [Example 71]
low bracket

Assign a bin to CCCCC1(CC)CN(c2ccccc2)c2ccc(O/C=C/C(=O)O)cc2S(=O)(=O)C1 (stereo not drawn) [Example 21]
high bracket

Assign a bin to CCCCC1(CC)CN(c2ccccc2)c2cc(Br)c(O/C=C(\F)C(=O)O)cc2S(=O)(=O)N1C (stereo not drawn) [Example 106]
low bracket

Assign a bin to CCCCC1(CCCC)CN(c2ccccc2)c2cc(Cl)c(O/C=C(\F)C(=O)O)cc2S(=O)(=O)C1 [Example 53]
middle bracket

Assign a bin to CCCCC1(CCCC)CN(c2ccc(NS(=O)(=O)C3CC3)cc2)c2cc(SC)c(O/C=C/C(=O)O)cc2S(=O)(=O)C1 [Example 9]
high bracket
